Tested on: sh-DNMT1 NCI-H82 cell
method: CellTiter-Glo cell viability, sh-DNMT1 NCI-H82 cell (DNMT1 knocked down)
Type: cell-based, human
conditions.used: Homo sapiens, NCI-H82, NCI-H82 with DNMT1 knocked down by shRNA, intracellular ATP, read-out: inhibitory effect on sh-DNMT1 NCI-H82 (IC50)
measurement.name: IC50 (µM)

COc1ccc2c(c1OC)C(C(Cl)(Cl)Cl)N1CCc3cc4c(cc3C1=C2CCCc1ccccc1)OCCO4 (centres unmarked) | 3.32
COc1ccc2c(c1OC/C=C(\C)CCC=C(C)C)C(C1CCCC1)N1CCc3cc4c(cc3C1=C2)OCO4 (centres unmarked) | 3.22
CC1c2c(ccc3c2OCO3)C(CCCc2ccccc2)=C2c3cc4c(cc3CCN21)OCO4 (centres unmarked) | 3.24
COc1ccc2cc3n(c(=O)c2c1OC)CCc1cc2c(cc1-3)OCO2 | 12.6
COc1ccc2c(c1OCCCCCCNC(=O)OC(C)(C)C)C(C)N1CCc3cc4c(cc3C1=C2)OCO4 (centres unmarked) | 5.48

(P) COc1ccc2c(c1OC)C(C(Cl)(Cl)Cl)N1CCc3cc4c(cc3C1=C2CCCCc1ccccc1)OCO4 (centres unmarked)
(Q) CCCCCCOc1c(OC)ccc2c1C(C(Cl)(Cl)Cl)N1CCc3cc4c(cc3C1=C2)OCO4 (centres unmarked)
(R) COc1ccc2c(c1OCCCCl)C(C1CCC1)N1CCc3cc4c(cc3C1=C2)OCO4 (centres unmarked)
input: Task for the reader: rank each entry by its IC50, from the minimum upward. API: response body holds the labels in the requested order.
output: Q, P, R
(Q: 3.23 µM, P: 5.32 µM, R: 8.46 µM)
